Where do the numbers come from? From patent US20020137929A1.

Tested on: GLXMAW (Soybean, Williams)
experimental-details: Postemergence herbicidal evaluation
Format: in vivo, Glycine max, (L.) Merr. cv Williams
experimental-conditions: postemergence, rate 0.0625 kg/ha
Assignment: determine reported GLXMAW herbicidal rating for the given compounds.

Some solved entries appear below for comparison.
1) C=CCN1C(=O)C(CC(=O)NC)SC1=Nc1cc(-n2c(=O)cc(C(F)(F)F)n(C)c2=O)c(F)cc1Cl (centres unmarked)
4.5
2) C=CCN1C(=O)CSC1=Nc1cc(N2C(=O)C3=C(CCCC3)C2=O)c(F)cc1Cl
3.5
3) C=CCN1C(=O)C(CC(=O)OCCF)SC1=Nc1cc(-n2c(=O)cc(C(F)(F)F)n(C)c2=O)c(F)cc1Cl (centres unmarked)
9.0
4) CCOC(=O)/C=C1/S/C(=N/c2cc(-n3c(=O)cc(C(F)(F)F)n(C)c3=O)c(F)cc2Cl)N(CC(=O)OCC)C1=O
9.0

Next compound, GLXMAW herbicidal rating to be filled in.
Qu. # get_value(readout='GLXMAW herbicidal rating', item= CCOC(=O)CN1C(=O)C(CC(=O)O)S/C1=N/c1cc(-n2c(=O)cc(C(F)(F)F)n(C)c2=O)c(F)cc1Cl (centres unmarked) )
Ans. 8.9
